Tested on: SK-MEL-5
MEASUREMENT_NOTES: NCI tumour cell line growth inhibition, 48 h
Calls of active or inactive are those of the source. Cut-off read from the data, not from the text of the source: active = GI50 up to about 1.1 µM and inactive = higher.
A collection of compounds and their measured GI50

{"columns": ["SMILES_STRUCTURE", "SYSTEM", "GI50"],
 "data": [
  ["O=C(N/C(=C\\c1ccc(/C=C(\\NC(=O)c2ccccc2)c2nc3c(O)nc(S)nc3[nH]2)cc1)c1nc2c(O)nc(S)nc2[nH]1)c1ccccc1", "SK-MEL-5", "64.4 µM (inactive)"],
  ["COc1cc(-c2nccc3cc(OC)c(OC)cc23)ccc1O", "SK-MEL-5", "32.6 µM (inactive)"],
  ["Cc1ccc(S(=O)(=O)NC(=O)NCCc2ccccc2)cc1", "SK-MEL-5", "> 100 µM (inactive)"],
  ["CN(C)c1ccc(/C=C(\\C#N)C(=O)c2ccccc2)cc1Br", "SK-MEL-5", "96.2 µM (inactive)"],
  ["O=C1/C(=C/c2ccc(Cl)cc2)N=C(c2ccccc2)N1c1nc2c(Cl)cc(Cl)cc2s1", "SK-MEL-5", "18.9 µM (inactive)"],
  ["c1cc2c(cc1NC1=NCCO1)OCO2", "SK-MEL-5", "> 100 µM (inactive)"],
  ["CN1C2=Nc3n(C)c4ccccc4[n+]3CN2c2ccccc21", "SK-MEL-5", "12.6 µM (inactive)"],
  ["COc1oc(C(=O)NC2CCCCC2)c(-c2ccc(Cl)cc2)c1S(=O)(=O)c1ccccc1", "SK-MEL-5", "28.1 µM (inactive)"],
  ["COC(=O)c1ccccc1Nc1ccccc1C(=O)OC", "SK-MEL-5", "54.7 µM (inactive)"]
]}

In the following, a different compound is considered.
`CCOC(=O)c1nc2ccc(C(F)(F)F)cc2nc1NCc1ccc(OC)c(OC)c1` yielded GI50 of 37.8 µM (inactive)
